molecular target: G-protein coupled receptor 55 (Homo sapiens) (UniProt Q9Y2T6); experiment: GPR55 antagonists blocking LPI-driven arrestin recruitment, primary screen, imaging, U2OS, beta-arrestin-GFP, LPI agonist (AID 2013); conditions: U2OS GPR55 beta-arrestin-GFP translocation imaging, LPI antagonism; at 10 µM; hits give high values;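 also: U2OS cells stably carrying GPR55 and arrestin-GFP stimulated by 5 µM LPI near EC80; imaged beta-arrestin-GFP aggregate spots per cell after agonist stimulation; plate controls were LPI-stimulated DMSO wells for no effect and DMSO wells without LPI for full effect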
Sequence (Q9Y2T6 whole entry, looked up): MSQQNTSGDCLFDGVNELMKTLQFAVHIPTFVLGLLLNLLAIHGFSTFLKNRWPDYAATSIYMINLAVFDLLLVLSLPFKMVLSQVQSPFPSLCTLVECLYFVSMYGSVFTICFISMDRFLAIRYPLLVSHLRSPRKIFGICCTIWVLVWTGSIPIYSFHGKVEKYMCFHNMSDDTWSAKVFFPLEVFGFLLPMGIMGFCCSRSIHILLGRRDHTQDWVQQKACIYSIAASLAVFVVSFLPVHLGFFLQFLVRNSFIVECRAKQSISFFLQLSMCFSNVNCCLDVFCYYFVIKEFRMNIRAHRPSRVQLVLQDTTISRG
Out of some 290,000 compounds screened, about 370 (0.13%) were called active. The list comes from a sample in which actives are over-represented; it also holds close analogues and randomly drawn compounds. Potency and affinity values are given separately.
PROPERTY: inhibition (%)
State just the number; it will be interpreted in %.

INPUT SMILES	QUANTITY UNIT	inhibition
Nc1cc(=O)[nH]c(SC/C=C/c2ccccc2)n1	%	-21.6
Cc1cc(Nc2ccc(Cl)cc2)nc(NCc2ccccc2)n1	%	13.1
COc1ccc(NC(=O)Cc2c(Cl)cccc2Cl)cn1	%	9
COc1ccc(CS(=O)(=O)/C(Cl)=C(/Cl)C(=O)Nc2ccc(OC)nc2)cc1	%	2
CC(=O)Nc1ccc(S(=O)(=O)NCCC(=O)N2CCc3ccccc32)cc1	%	2.8
Cc1ccc(Nc2cc(C)nc(NCc3ccccc3)n2)cc1	%	26.1
COC(=O)c1ccc2c(c1)C(C)(C)C(/C=C/c1ccccc1O)=[N+]2C	%	11.5
Cc1cc(C2(c3ccc(O)c(C)c3)OC(=O)c3ccccc32)ccc1O	%	83.2

[Q] I am curious: what inhibition value has been reported for c1ccc2c(-c3ccncc3)c[nH]c2c1 ?
[A] -22.9

[Q] I am curious: what inhibition value has been reported for Cc1nn(C(C)(C)C)c(OC(=O)c2ccc(Br)o2)c1Sc1ccccc1 ?
[A] -4.1

[Q] I am curious: what inhibition value has been reported for Cc1cc(O)c(C(C)C)cc1C1(c2cc(C(C)C)c(O)cc2C)OC(=O)c2ccccc21 ?
[A] 6.1

---

biological target: G-protein coupled receptor 55 (Homo sapiens) (UniProt Q9Y2T6); test: GPR55 antagonists blocking LPI-driven arrestin recruitment, primary screen, imaging, U2OS, beta-arrestin-GFP, LPI agonist (AID 2013); settings: U2OS GPR55 beta-arrestin-GFP translocation imaging, LPI antagonism; at 10 µM; hits give high values
About 370 (0.13%) of roughly 290,000 compounds were called active. The sample as a whole holds a higher share of actives than the screen did. Results with a measured potency or affinity are listed apart.
PROPERTY: inhibition

Examples from the recorded data:
COMPOUND	inhibition
COc1ccc(/C=C(\C#N)C(=O)NC(C)c2ccccc2)cc1O (stereo not given)	4.5% (inactive)
Cc1ccc(Cc2cnc(N3C(=N)SC(C)C3=O)s2)cc1 (stereo not given)	16.2% (inactive)
Cc1cc(C)cc(Oc2cc(NC(=O)c3cn(C)nc3C)cc([N+](=O)[O-])c2)c1	-5.3% (inactive)
O=C(c1cccc(Oc2ccc([N+](=O)[O-])cc2Cl)c1)N1CCOCC1	-4.4% (inactive)
Cc1nc(SCC(=O)c2cc3ccccc3oc2=O)c(C#N)c(-c2ccccc2)c1C(=O)Nc1ccccc1	3.8% (inactive)
O=C(c1ccc(Oc2ccc([N+](=O)[O-])cc2Cl)cc1)N1CCCC1	-12.4% (inactive)
Cc1cc(C)c(NC(=O)c2ccccc2C(=O)c2ccccc2)c(C)c1	10.3% (inactive)
N#CC1=C2N=C(N)c3ccccc3N2C2=C(C(=O)CCC2)C1c1ccc(Cl)cc1 (stereo not given)	86.9% (inactive)
CC(NC(=O)/C(C#N)=C/c1ccc([N+](=O)[O-])o1)c1ccccc1 (stereo not given)	4.1% (inactive)

Please find the next compound below.
[Q] I am curious: what inhibition value has been reported for N#CC1=C2N=C(N)c3ccccc3N2C2=C(C(=O)CCC2)C1c1ccc(F)cc1 (stereo not given) ?
[A] 13.1% (inactive)

---

target: G-protein coupled receptor 55 (Homo sapiens) (UniProt Q9Y2T6); test: GPR55 antagonists blocking LPI-driven arrestin recruitment, primary screen, imaging, U2OS, beta-arrestin-GFP, LPI agonist (AID 2013); conditions: U2OS GPR55 beta-arrestin-GFP translocation imaging, LPI antagonism; at 10 µM; hits give high values
Hit rate of the full screen: of about 290,000 compounds, about 370 (0.13%) were called active. The sample holds actives, similar compounds and a random draw of the others, so the mix is not that of the screen. Entries with a potency or affinity are not part of this list.
PROPERTY: inhibition (%)
State just the number; it will be interpreted in %.

Examples from the recorded data:
COMPOUND	TGT	inhibition, %
C=CCN(c1ccccc1)S(=O)(=O)c1c(C)[nH]c(=O)[nH]c1=O	G-protein coupled receptor 55 (Homo sapiens) (UniProt Q9Y2T6)	0.3
COC(=O)c1sc(NC(=O)/C=C/c2ccc(C)cc2)nc1C	G-protein coupled receptor 55 (Homo sapiens) (UniProt Q9Y2T6)	16.9
CCOC(=O)C1CCN(CC(=O)Nc2ccc(OC)c(Cl)c2)CC1	G-protein coupled receptor 55 (Homo sapiens) (UniProt Q9Y2T6)	17.5
Cc1onc(-c2ccccc2)c1C(=O)N1CCCN2C(=O)c3ccccc3C21 (stereo unspecified)	G-protein coupled receptor 55 (Homo sapiens) (UniProt Q9Y2T6)	-4.5
Cc1ccc(C)c(N2CCN(C(=O)Cn3ncc4c([nH]c5ccc(C)cc54)c3=O)CC2)c1	G-protein coupled receptor 55 (Homo sapiens) (UniProt Q9Y2T6)	0.4
O=C(NC12CC3CC(CC(C3)C1)C2)c1ccc(-c2ccc(Br)cc2)o1	G-protein coupled receptor 55 (Homo sapiens) (UniProt Q9Y2T6)	63.8

[Q] I am curious: what inhibition value has been reported for COCCN(CCOC)C(=S)Nc1ccccc1 ?
[A] 12.7

[Q] I am curious: what inhibition value has been reported for N=c1c2c(ncn1Cc1ccco1)Oc1c(ccc3ccccc13)C2c1ccccc1 (stereo unspecified) ?
[A] 65.9

[Q] I am curious: what inhibition value has been reported for COc1ccc(C2c3ccc(O)cc3Oc3ncn4nc(-c5ccncc5)nc4c32)cc1OC (stereo unspecified) ?
[A] 5.3

---

biological target: G-protein coupled receptor 55 (Homo sapiens); assay: GPR55 antagonists blocking LPI-driven arrestin recruitment, primary screen, imaging, U2OS, beta-arrestin-GFP, LPI agonist (AID 2013); details: U2OS GPR55 beta-arrestin-GFP translocation imaging, LPI antagonism; at 10 µM; hits give high values;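 also: U2OS cells stably carrying GPR55 and arrestin-GFP stimulated by 5 µM LPI near EC80; imaged beta-arrestin-GFP aggregate spots per cell after agonist stimulation; plate controls were LPI-stimulated DMSO wells for no effect and DMSO wells without LPI for full effect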
The whole screen tested about 290,000 compounds, of which about 370 (0.13%) were called active. The sample holds actives, similar compounds and a random draw of the others, so the mix is not that of the screen. Entries with a potency or affinity are not part of this list.
PROPERTY: inhibition (%)
State just the number; it will be interpreted in %.

[Q] I am curious: what inhibition value has been reported for Oc1ccccc1C1=NN(c2ccccc2)C(c2ccc(F)cc2)C1 (stereo not drawn) ?
[A] -10.6

---

# inhibition values compiled below
molecular target: G-protein coupled receptor 55 (Homo sapiens); test: GPR55 antagonists blocking LPI-driven arrestin recruitment, primary screen, imaging, U2OS, beta-arrestin-GFP, LPI agonist (AID 2013); conditions: U2OS GPR55 beta-arrestin-GFP translocation imaging, LPI antagonism; at 10 µM; hits give high values;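 also: U2OS cells stably carrying GPR55 and arrestin-GFP stimulated by 5 µM LPI near EC80; imaged beta-arrestin-GFP aggregate spots per cell after agonist stimulation; plate controls were LPI-stimulated DMSO wells for no effect and DMSO wells without LPI for full effect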
Screen size: about 290,000 compounds; about 370 (0.13%) were called active. This is one part of a sample in which actives are shown more often than they occur. Entries with a potency or affinity are not part of this list.

COMPOUND	MEASURED
CCOC(=O)c1c(NC(=O)C2=C(C)NC(=S)NC2c2ccc(F)cc2)sc(C)c1C (stereo not drawn)	64.1% (active)
COC(=O)C1=C(C)N(Cc2ccc(OC)cc2)C(=O)/C1=C\c1ccco1	0.4% (inactive)

[Q] Given the entry Fc1ccc(NC(=S)NC2CCN(Cc3ccccc3)CC2)cc1 , what inhibition was observed with G-protein coupled receptor 55 (Homo sapiens)?
[A] 28.1% (inactive)

[Q] Given the entry CCOC(=O)c1c(NC(=O)C2=C(C)NC(=S)NC2c2ccccc2C(F)(F)F)sc(C)c1C (stereo not drawn) , what inhibition was observed with G-protein coupled receptor 55 (Homo sapiens)?
[A] 5.6% (inactive)

[Q] Given the entry COc1ccccc1OCC(=O)N1CCN(C(=O)COc2ccccc2OC)CC1 , what inhibition was observed with G-protein coupled receptor 55 (Homo sapiens)?
[A] 2.2% (inactive)

---

biological target: G-protein coupled receptor 55 (Homo sapiens); experiment: GPR55 antagonists blocking LPI-driven arrestin recruitment, primary screen, imaging, U2OS, beta-arrestin-GFP, LPI agonist (AID 2013); conditions: U2OS GPR55 beta-arrestin-GFP translocation imaging, LPI antagonism; at 10 µM;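 also: U2OS cells stably carrying GPR55 and arrestin-GFP stimulated by 5 µM LPI near EC80; imaged beta-arrestin-GFP aggregate spots per cell after agonist stimulation; plate controls were LPI-stimulated DMSO wells for no effect and DMSO wells without LPI for full effect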
About 370 (0.13%) of roughly 290,000 compounds were called active.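 The calls were made as follows: active = spots per cell inhibited over 60%, with over 100 cells counted and total cytoplasm intensity under 500,000; inconclusive = wells with under 100 cells, flagged as likely toxic; inactive = the rest.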 Only a selection was taken, and actives are over-represented in it overall. Results with a measured potency or affinity are listed apart.
Your response should consist of one outcome taken from Yes for active, No for inactive

Consider the worked cases shown below.
COMPOUND	ASSIGNED CATEGORY
O=C(Nc1ccccc1O)c1ccc2c(c1)C(=O)N(Cc1ccco1)C2=O	No
O=C(O)c1cccc(S(=O)(=O)Nc2ccc(OCc3ccccc3)cc2)c1	No
CCCCN(CC)C(=O)CSc1nc2c(sc(=S)n2-c2ccc(OCC)cc2)c(=O)[nH]1	No

[Q] Outcome logged for C=CCN1C=CC(=C/C=C(/C#N)C(=O)OCC)C=C1 in this assay:
[A] No

[Q] Outcome logged for CCCN1C=CC(=CC=C(C#N)C#N)C=C1 in this assay:
[A] No

[Q] Outcome logged for CCCN1C2CCCC1CC(NC(=O)c1cc(OC)cc(OC)c1)C2 (stereo not given) in this assay:
[A] No

[Q] Outcome logged for COc1ccc(CNc2nc3c(c(C(F)(F)F)n2)CCCCC3)cc1 in this assay:
[A] No

[Q] Outcome logged for COc1cc(C(=O)NNC(=O)NC2CCCCC2)cc(OC)c1OC in this assay:
[A] No

[Q] Outcome logged for C=CCN1C=CC(=CC=C(C#N)C#N)C=C1 in this assay:
[A] Yes

[Q] Outcome logged for O=C(NCc1ccccc1)c1ccc(C2SCC(=O)N2Cc2ccccc2)cc1 (stereo not given) in this assay:
[A] No

[Q] Outcome logged for CC(=O)NC(=S)Nc1cccc2ccc(C)nc12 in this assay:
[A] No

[Q] Outcome logged for COc1ccc(NC(=O)CCCn2c(=O)[nH]c3ccccc3c2=O)cc1 in this assay:
[A] No

[Q] Outcome logged for Cc1ccc2c(c1)C1(C(=O)N2C)N2CC3(C)CN1CC(C)(C2)C3=O (stereo not given) in this assay:
[A] No

[Q] Outcome logged for CC(=O)/C=C1\N(C)c2ccc(C)cc2C1(C)C in this assay:
[A] No

[Q] Outcome logged for CN(C)/C=N/c1[nH]ncc1C#N in this assay:
[A] No
